target: UniProtKB Q9NYK1; assay: HEK293-Blue-hTLR-7 cells assay (SEAP reporter, R848 stimulation); settings: HEK293-Blue-hTLR7 cells, R848 ligand, 20 hrs incubation
Sequence (Q9NYK1 27-1049): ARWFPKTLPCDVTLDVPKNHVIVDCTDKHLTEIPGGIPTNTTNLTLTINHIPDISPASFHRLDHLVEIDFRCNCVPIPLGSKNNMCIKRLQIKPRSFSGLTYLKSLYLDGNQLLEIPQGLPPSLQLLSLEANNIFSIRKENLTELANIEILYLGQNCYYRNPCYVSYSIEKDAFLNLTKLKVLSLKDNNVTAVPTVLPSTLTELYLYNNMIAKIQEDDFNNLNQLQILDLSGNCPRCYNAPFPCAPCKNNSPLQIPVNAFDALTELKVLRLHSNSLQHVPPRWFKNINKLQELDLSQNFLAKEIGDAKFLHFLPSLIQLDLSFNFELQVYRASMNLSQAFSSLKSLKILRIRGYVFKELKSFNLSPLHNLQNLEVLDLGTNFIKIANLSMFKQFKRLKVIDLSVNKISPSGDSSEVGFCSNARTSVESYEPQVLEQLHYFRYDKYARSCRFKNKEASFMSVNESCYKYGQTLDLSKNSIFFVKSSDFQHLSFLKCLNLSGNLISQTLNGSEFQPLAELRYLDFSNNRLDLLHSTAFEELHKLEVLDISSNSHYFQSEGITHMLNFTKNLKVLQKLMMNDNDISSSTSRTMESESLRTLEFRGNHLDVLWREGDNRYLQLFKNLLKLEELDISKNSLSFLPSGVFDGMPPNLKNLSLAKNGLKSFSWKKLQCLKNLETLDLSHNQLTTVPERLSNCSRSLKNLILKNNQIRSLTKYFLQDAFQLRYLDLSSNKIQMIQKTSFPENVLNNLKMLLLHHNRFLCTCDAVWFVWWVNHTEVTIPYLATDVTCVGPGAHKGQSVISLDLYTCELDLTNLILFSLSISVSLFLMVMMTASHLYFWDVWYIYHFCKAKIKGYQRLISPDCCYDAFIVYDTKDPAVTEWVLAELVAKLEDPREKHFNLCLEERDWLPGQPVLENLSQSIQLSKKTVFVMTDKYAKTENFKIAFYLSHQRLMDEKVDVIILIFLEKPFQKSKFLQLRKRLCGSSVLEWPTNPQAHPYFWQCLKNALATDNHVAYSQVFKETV

{"columns": ["compound", "unit label", "IC50"],
 "data": [
  ["N#Cc1ccc(N2C[C@H](CN3CCC(N4CCCCCC4)CC3)[C@@H](C(F)(F)F)C2)c2nccnc12", "nM", 34],
  ["N#Cc1ccc(N2C[C@H](CN3CCC(CCN)CC3)[C@@H](C(F)(F)F)C2)c2nccnc12", "nM", 37],
  ["N#Cc1ccc(N2C[C@H](CN3CCC4(CCNCC4)C3)[C@@H](C(F)(F)F)C2)c2cccnc12", "nM", 113],
  ["N#Cc1ccc(N2C[C@H](CN3CCC4(CCCNC4)CC3)[C@@H](C(F)(F)F)C2)c2cccnc12", "nM", 111],
  ["N#Cc1ccc(N2CC(CN3CCC4(CCCNC4)C3)C3(CC3)C2)c2nccnc12 (centres unmarked)", "nM", 201],
  ["N#Cc1ccc(N2CC(CN3CCC4(CCNC4)C3)C3(CC3)C2)c2cccnc12 (centres unmarked)", "nM", 899],
  ["CC(C)[C@@H]1CN(c2ccc(C#N)c3ncccc23)C[C@H]1CN1CCC2(CCNCC2)CC1 (relative stereo)", "nM", 471],
  ["N#Cc1ccc(N2CC(CN3CCOC4(CCNCC4)C3)C3(CC3)C2)c2nccnc12 (centres unmarked)", "nM", 131]
]}
